B1: TPR 5TU (parent)
chain: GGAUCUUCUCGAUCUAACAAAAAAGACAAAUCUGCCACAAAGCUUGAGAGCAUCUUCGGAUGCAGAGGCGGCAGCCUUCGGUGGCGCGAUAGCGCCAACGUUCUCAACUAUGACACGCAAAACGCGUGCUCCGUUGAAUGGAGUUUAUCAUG

Variants of: B1
test_name: polymerase ribozyme fitness, log enrichment relative to wild type (log ratio); higher = more active; in vitro selection for triplet polymerase activity
This sample holds only a part of the variants without activity.
readout_kind: polymerase ribozyme fitness (log ratio)

- C54U U56A C118U: -0.674
- U53A A66C: -4.19
- G92U A138C: -3.95
- A26C A73G C105U U146G: -3.66
- A40C C93A C99U G133C: -3.98
- C51U C116U A121C G152U: -3.78
- U15A A40C: 0.538
- U53A C96A C129G: -3.82
- C85A G152U: -3.5
- A22U A40G G84A A119G: -2.75
- C99A C118G A119C: -0.582
- C76U C96U: 0.0365
- U61A U82A: -1.03
